# experimental-details: yeast display, Sf9 membrane polyspecificity reagent, FACS + sequencing; frameworks hold sequencing errors
property-label: polyreactivity (PSR sort gate)

Example results:
sequence-entry	property-label	measured
QVQRVESGGGLVQAGGSLRLSCAASGFIFEGNAMGWYRQAPGKERELVAAISWSGGRTFYADSVKGRFTISRDHAKNTVYLQMNSLKPEDTAVYYCAAQGRRYGYGDFYYWGQGTQVTVSS	polyreactivity (PSR sort gate)	high polyreactivity
QVQLVESGGGLVQAGGSLRLSCAASGFTFRRYAMGWYRQAPGKERELVAAISIRGGRTYYADSVKGRFTISRDNAKNTVYLQMNSLKPEVTAVYYCAAAPVGYGKRFYYWGQGTQVTVSS	polyreactivity (PSR sort gate)	high polyreactivity
QVQLVESGGGLVQAGGSLRLSCAASGSTFYQYDMGWSRQAPGKERELVATISWSATSTYYADSVKGRFTISRDNAKNTVYLQMNSLKPEDTAVYYCNADLGDVYGWLHYDYWGQGTQVTVSS	polyreactivity (PSR sort gate)	low polyreactivity
QVQLVESGGGLVQAGGSLRLSCAASGSIFGYYTMGWYRPAPGKERELVAAITSGGSTNYADSVKGRFTISRDNAKNTVYLQMNSLKPEDTAVYYCAKVSYYPWRYDYWGQGTQVTVSS	polyreactivity (PSR sort gate)	low polyreactivity
QVQLVESGGGLVQAGGSLRLSCAASGRIFYPYAMGWYRQAPGTERELVATITRTGSTYYADSVKGRFTISRDNAKNTVYLQMNSLKPEDTAVYDCAVQRSYVGPRQYNYWGQGTQVTVSS	polyreactivity (PSR sort gate)	high polyreactivity
QVQLVESGGGLVQAGGSLRLSCAASGRTFPSYTMGWYRQAPGKERELVAAITWTGGSTYYADSVKGRFTISRDNAKNTVYLQMNSLKPEDTAVYYCADYDYWGLGTQVTVSS	polyreactivity (PSR sort gate)	low polyreactivity
QVQLVESGGGLVQAGGSLRLSCAASGFTFDSYDMGWSRQAPVKEREVVAAITWSGGSTYYADSVKGRFTISRDNAKNTVYLQMNSLKQEDTAVYYCNADTGTYWVPWYHDGYDYWGQGTQVTVSS	polyreactivity (PSR sort gate)	low polyreactivity
QVQLLETGGGLVQAGGSLRLSCAPSGFTIYRYAMGWYKQAPGKERELVAAISSGTSTYYADTVKGRFTISRDNAKKTVYLQINSLKPEVTEVYYCAVAGVSLYGTLYDYWGLGTQVTVSS	polyreactivity (PSR sort gate)	high polyreactivity

Turning now to a further record.
In: For QVQLVESGGGLVQAGGTLRLSCAASGSTFPPYAMGWYRQAPGKERELVAAISWRGSSTYYADSVKGRFTISRDNAKNTVYLQMNSLKPEDTAVYYCNADGGGSYWLYEHGFARDYWGQGTQVTVSS , what is its reported polyreactivity (PSR sort gate)?
Out: high polyreactivity
